Give measured growth for each item. Keep answers brief.
# Tested on: Clostridium sporogenes DSM 1664
# Experimental Details: growth (OD595) fold change vs plate DMSO controls (fold change (ratio)); higher = more growth
# Test Context: incubation time: 27 h, anaerobic, 37 °C
Structures can show the parent of a compound that is named as a salt.

Data request, read-out growth, for COc1ccc(-c2ccc3cc(C(=O)O)ccc3c2)cc1C12CC3CC(CC(C3)C1)C2 [Adapalene] (20 µM)
0.829

Same question, NC(=O)c1cc[n+](CC2=C(C(=O)[O-])N3C(=O)[C@@H](NC(=O)[C@@H](c4ccccc4)S(=O)(=O)O)[C@H]3SC2)cc1 [Cefsulodin sodium salt] (20 µM) this time
0.613

Same question, COc1c(O[C@@H]2O[C@H](CO)[C@@H](O)[C@H](O)[C@H]2O)cc2c(c1OC)-c1ccc(SC)c(=O)cc1[C@@H](NC(C)=O)CC2 [Thiocolchicoside] (20 µM) this time
0.996

Same question, Cc1cc(NS(=O)(=O)c2ccc(N)cc2)no1 [Sulfamethoxazole] (20 µM) this time
1.01

Same question, NNCCc1ccccc1 [Phenelzine sulfate] (20 µM) this time
0.965

Same question, CC(=O)N[C@@H](CC(=O)O)C(=O)N[C@@H](CCC(=O)O)C(=O)O [Spaglumic acid] (20 µM) this time
1.09

Same question, CC(=O)N[C@@H](CC(C)C)C(=O)O [N-Acetyl-L-leucine] (20 µM) this time
1.1

Same question, O=C(OCCOCCO)c1ccccc1Nc1cccc(C(F)(F)F)c1 [Etofenamate] (20 µM) this time
1.2

Same question, NCCCCCC(=O)O [Aminocaproic acid] (20 µM) this time
0.927

Same question, CN1CCN(CCCN2c3ccccc3Sc3ccc(S(=O)(=O)N(C)C)cc32)CC1 [Thioproperazine dimesylate] (20 µM) this time
0.886

Same question, CC(C)NC[C@H](O)COc1ccc(CC(N)=O)cc1 [(S,-) Atenolol] (20 µM) this time
0

Same question, CN(C)c1ccc2nc3ccc(=[N+](C)C)cc-3sc2c1 [Methylene blue] (20 µM) this time
0.774

Same question, Nc1ccc(C(=O)NCC(=O)O)cc1 [Aminohippuric acid] (20 µM) this time
0.256

Same question, COC(=O)Nc1nc2cc(C(=O)c3ccccc3)ccc2[nH]1 [Mebendazole] (20 µM) this time
1.04

Same question, CC(Oc1ccccc1)C(=O)N[C@@H]1C(=O)N2[C@@H]1SC(C)(C)[C@@H]2C(=O)O (stereo partly specified) [Phenethicillin potassium salt] (20 µM) this time
0

Same question, NCCCC[C@H](N[C@@H](CCc1ccccc1)C(=O)O)C(=O)N1CCC[C@H]1C(=O)O [Lisinopril] (20 µM) this time
1.04

====

Give measured growth for each item. Keep answers brief.
# System: Klebsiella aerogenes DSM 30053
# Experimental Details: growth (OD595) fold change vs plate DMSO controls (fold change (ratio)); higher = more growth
# Test Context: incubation time: 27 h, anaerobic, 37 °C
Structures can show the parent of a compound that is named as a salt.
The answer should be written as a number, with no unit following it.

Data request, read-out growth, for COC(=O)Nc1nc2ccc(SC(C)C)cc2[nH]1 [Methiazole] (20 µM)
1.24

Same question, O=c1cc(-c2ccc(O)c(O)c2)oc2cc(O)cc(O)c12 [Luteolin] (20 µM) this time
0.977

Same question, OC(CCN1CCCCC1)(c1ccccc1)C1CCCCC1 (stereo not given) [Trihexyphenidyl-D,L hydrochloride] (20 µM) this time
1.02

Same question, O=C(CO)[C@@H](O)[C@@H](O)[C@H](O)CO [D-Tagatose] (50 µM) this time
1.03

Same question, CS(=O)(=O)c1ccc([C@@H](O)[C@@H](CF)NC(=O)C(Cl)Cl)cc1 [Florfenicol] (20 µM) this time
0.0697
